# System: Candida albicans
# method summary: Antibacterial activity against ampicillin/cefotaxime/tetracycline/ceftriaxone/fosfomycin-resistant Candida albicans 181210169-1 assessed as inhibition of fungal growth measured after 16 to 20 hrs by two-fold serial microbroth dilution method
# Type: functional, organism-based
# measurement conditions: time 16-20 hrs
Activity calls are given as the source filed them. The calls are words filed in the database; no cut-off is given here.
Allowed answers: active, inactive

COc1c2c(cc3c1C(CC(=O)c1ccc4c5c(cccc15)CC4)[N+](C)(C)CC3)OCO2 (centres undefined) ... inactive
COc1c2c(cc3c1C(CC(=O)/C=C/C1=C(C)CCCC1(C)C)[N+](C)(C)CC3)OCO2.[I-] (centres undefined) ... active
CCCc1ccc(C(=O)CC2c3c(cc4c(c3OC)OCO4)CC[N+]2(C)C)cc1.[I-] (centres undefined) ... active
CCn1c(O)c(C(=O)CC2c3c(cc4c(c3OC)OCO4)CCN2C)c(=O)n(CC)c1=S (centres undefined) ... inactive
COc1c2c(cc3c1C(CC(=O)/C=C/C1C(C)=CCCC1(C)C)[N+](C)(C)CC3)OCO2 (centres undefined) ... inactive

Ask: So what was the verdict on CCOc1ccc(/C=C/C(=O)CC2c3c(cc4c(c3OC)OCO4)CC[N+]2(C)C)cc1 (centres undefined) in this test?
Reply: inactive

Ask: Give the logged outcome of this assay for the following molecule: COc1c2c(cc3c1C(CC(=O)/C=C/C1CC=C(C)CC1C)[N+](C)(C)CC3)OCO2 (centres undefined)
Reply: active

Ask: How did this test come out for COc1c2c(cc3c1C(CC(=O)c1c(O)n(C)c(=S)n(C)c1=O)N(C)CC3)OCO2 (centres undefined) ?
Reply: active

Ask: State the result this test recorded for COc1c2c(cc3c1C(CC(=O)c1ccc(CC(C)C)cc1)[N+](C)(C)CC3)OCO2 (centres undefined) .
Reply: active

====

Overview of reported CC50 at 28 h across a group of compounds:
# method summary: Cytotoxicity against human HEK293 cells assessed as reduction in cell viability measured after 28 hrs by PrestoBlue reagent based fluorescence analysis
Quick note: give the figure in µM, leave out the unit.

Ask: Need CC50 at 28 h, item COc1c2c(cc3c1C(CC(=O)/C=C/C1C(C)=CCCC1(C)C)[N+](C)(C)CC3)OCO2 (centres undefined)
Reply: 16.2

Ask: For the compound COc1c2c(cc3c1C(CC(=O)/C=C/C1CC=C(C)CC1C)[N+](C)(C)CC3)OCO2 (centres undefined) , what CC50 at 28 h is on record?
Reply: 10.4

Ask: Given CCOc1ccc(/C=C/C(=O)CC2c3c(cc4c(c3OC)OCO4)CC[N+]2(C)C)cc1 (centres undefined) , state its recorded CC50 at 28 h.
Reply: 17.8

Ask: Value lookup for CC50 at 28 h; key = CCn1c(O)c(C(=O)CC2c3c(cc4c(c3OC)OCO4)CCN2C)c(=O)n(CC)c1=S (centres undefined)
Reply: 71

====

# System: Escherichia coli
# method summary: Antibacterial activity against ampicillin/cefotaxime/tetracycline/ceftriaxone-resistant Escherichia coli mx7 assessed as inhibition of bacterial growth measured after 16 to 20 hrs by two-fold serial microbroth dilution method
# Assay type: functional, organism-based
# measurement conditions: time 16-20 hrs
Activity calls are given as the source filed them. The rule behind the calls is not given here.
One label from this list, please: active, inactive

Use the examples below as a reference point.
CCCc1ccc(C(=O)CC2c3c(cc4c(c3OC)OCO4)CC[N+]2(C)C)cc1.[I-] (centres undefined) ... active
COc1c2c(cc3c1C(CC(=O)/C=C/C1CC=C(C)CC1C)[N+](C)(C)CC3)OCO2 (centres undefined) ... active
COc1c2c(cc3c1C(CC(=O)c1ccc4c5c(cccc15)CC4)[N+](C)(C)CC3)OCO2 (centres undefined) ... inactive
COc1c2c(cc3c1C(CC(=O)c1ccc(CC(C)C)cc1)[N+](C)(C)CC3)OCO2 (centres undefined) ... active
COc1c2c(cc3c1C(CC(=O)/C=C/C1C(C)=CCCC1(C)C)[N+](C)(C)CC3)OCO2 (centres undefined) ... inactive

Ask: For this compound, state the assay outcome: COc1c2c(cc3c1C(CC(=O)c1c(O)n(C)c(=S)n(C)c1=O)N(C)CC3)OCO2 (centres undefined)
Reply: inactive

Ask: State the result this test recorded for COc1c2c(cc3c1C(CC(=O)/C=C/C1=C(C)CCCC1(C)C)[N+](C)(C)CC3)OCO2.[I-] (centres undefined) .
Reply: active

Ask: Short answer needed: outcome of this test for CCOc1ccc(/C=C/C(=O)CC2c3c(cc4c(c3OC)OCO4)CC[N+]2(C)C)cc1 (centres undefined) ?
Reply: inactive

Ask: Recorded test outcome, item CCn1c(O)c(C(=O)CC2c3c(cc4c(c3OC)OCO4)CCN2C)c(=O)n(CC)c1=S (centres undefined)
Reply: inactive

====

# System: Enterobacter
# method summary: Antibacterial activity against Enterobacter sp. O54 assessed as inhibition of bacterial growth measured after 16 to 20 hrs by two-fold serial microbroth dilution method
# Type: functional, organism-based
# measurement conditions: time 16-20 hrs
The source made the active and inactive calls. The rule behind the calls is not given here.
Entry note: the call must match one of t (active), f (inactive)

COc1c2c(cc3c1C(CC(=O)c1c(O)n(C)c(=S)n(C)c1=O)N(C)CC3)OCO2 (centres undefined) ... t
COc1c2c(cc3c1C(CC(=O)c1ccc(CC(C)C)cc1)[N+](C)(C)CC3)OCO2 (centres undefined) ... t
CCn1c(O)c(C(=O)CC2c3c(cc4c(c3OC)OCO4)CCN2C)c(=O)n(CC)c1=S (centres undefined) ... f
COc1c2c(cc3c1C(CC(=O)/C=C/C1C(C)=CCCC1(C)C)[N+](C)(C)CC3)OCO2 (centres undefined) ... f
COc1c2c(cc3c1C(CC(=O)c1ccc4c5c(cccc15)CC4)[N+](C)(C)CC3)OCO2 (centres undefined) ... f

Ask: Assay result, entry COc1c2c(cc3c1C(CC(=O)/C=C/C1CC=C(C)CC1C)[N+](C)(C)CC3)OCO2 (centres undefined) — outcome?
Reply: f

====

A collection of compounds and their measured CC50 at 28 h
# method summary: Cytotoxicity against human HEK293 cells assessed as reduction in cell viability measured after 28 hrs by PrestoBlue reagent based fluorescence analysis

The cases that follow already have their CC50 at 28 h on record.
COc1c2c(cc3c1C(CC(=O)c1c(O)n(C)c(=S)n(C)c1=O)N(C)CC3)OCO2 (stereo not given) ... > 100 µM
CCCc1ccc(C(=O)CC2c3c(cc4c(c3OC)OCO4)CC[N+]2(C)C)cc1.[I-] (stereo not given) ... 12.6 µM
COc1c2c(cc3c1C(CC(=O)c1ccc4c5c(cccc15)CC4)[N+](C)(C)CC3)OCO2 (stereo not given) ... 17 µM
COc1c2c(cc3c1C(CC(=O)/C=C/C1=C(C)CCCC1(C)C)[N+](C)(C)CC3)OCO2.[I-] (stereo not given) ... 14.9 µM

Ask: Field request: CC50 at 28 h | item: COc1c2c(cc3c1C(CC(=O)c1ccc(CC(C)C)cc1)[N+](C)(C)CC3)OCO2 (stereo not given)
Reply: 13.3 µM

====

# Tested on: Enterobacter
# method summary: Antibacterial activity against Enterobacter sp. O54 assessed as inhibition of bacterial growth measured after 16 to 20 hrs by two-fold serial microbroth dilution method
# Format: functional, organism-based
# measurement conditions: time 16-20 hrs
Active and inactive are the calls of the source. The calls are words filed in the database; no cut-off is given here.
Give your call using only these classes: t for active, f for inactive

Past entries and their recorded results:
CCCc1ccc(C(=O)CC2c3c(cc4c(c3OC)OCO4)CC[N+]2(C)C)cc1.[I-] (stereo not drawn) ... t
CCOc1ccc(/C=C/C(=O)CC2c3c(cc4c(c3OC)OCO4)CC[N+]2(C)C)cc1 (stereo not drawn) ... f

Please turn your attention to the following entry.
Ask: Lab log entry: COc1c2c(cc3c1C(CC(=O)/C=C/C1=C(C)CCCC1(C)C)[N+](C)(C)CC3)OCO2.[I-] (stereo not drawn) — outcome as called in the assay?
Reply: f
